tested on: SK-MEL-28 melanoma; assay: NCI tumour cell line growth inhibition, 48 h
So I've got a bunch of compounds here, and I need their TGI values.

CN(C)CCCNC(=O)N/N=C/c1ccccc1    > 100 µM
COc1c(N2CCN(CN3C(=O)C(=Nc4ccc(S(=O)(=O)Nc5ncccn5)cc4)c4cc(Cl)ccc43)C(C)C2)c(F)cc2c(=O)c(C(=O)O)cn(C3CC3)c12 (centres undefined)    > 50 µM
CC(C)=C/C(CC(O)(C(F)(F)F)C(F)(F)F)=N\O    > 100 µM

--- query ---
I am curious: what TGI value has been reported for CC(SCc1ccccc1)C(=O)O (centres undefined) ?
> 100 µM

---

system: NCI-H23 lung; assay: NCI tumour cell line growth inhibition, 48 h
reportedMetric: TGI

Consider the following illustrative entries.
Cc1cccc2c1CC(Cc1ccccc1C(=O)O)C2=O (centres undefined)    > 100 µM
COc1ccc(C(=O)/C=C/SC(=NC#N)SC)cc1    33.2 µM
O=C(Nc1cccc(C(F)(F)F)c1)Oc1ccc(Cl)c2cccnc12    11.7 µM
Cc1nc2c(=O)n(-c3ccccc3)c(=O)n(-c3ccccc3)c2o1    > 100 µM
O=c1c2ccc(Cl)cc2oc2c(CNc3ccc(S(=O)(=O)Nc4ncccn4)cc3)cccc12    > 100 µM

Go through the list and state TGI for each entry.
1. CC1(C)N=C(N)N=C(N)N1c1cccc(Cl)c1
2. COc1ccc(C2c3cc4c(cc3OC(Nc3ccccc3)C2C)OCO4)cc1 (centres undefined)
3. COc1cc(NCCCCCN=C(N)NC(N)=NC(C)C)c2ncccc2c1
4. O=C1CC[C@@]23CC(=O)O[C@@H]2CCCC3C1 (some centres undefined)
5. COc1ccc([C@]23CCC4(OCC(C)(C)CO4)[C@H]4CON(O[C@H](O[C@@H]5CCCCC5C(C)(C)c5ccccc5)C2)[C@@H]43)cc1OC (some centres undefined)
6. CN(N)c1nc(N)c(C#N)c(C#N)c1C#N
7. O=c1/c(=N\Nc2ccccc2)c2cccc3ccc4cccc1c4c32

1. > 100 µM
2. > 100 µM
3. 2.3 µM
4. > 100 µM
5. > 100 µM
6. > 10 µM
7. > 100 µM

---

For each record, write down the corresponding TGI.
tested on: SK-MEL-5 melanoma; assay: NCI tumour cell line growth inhibition, 48 h

COc1cc2cnc3c4cc(OCc5ccccc5)ccc4ccc3c2cc1OC    76 µM
O=C(c1ccco1)N(C(=O)N1CCC(c2ccccc2)CC1)c1ccccc1    51.5 µM

Quick request: TGI for each listed item, please.
1. COc1ccc(C2C=C(c3ccc(C)cc3)N(c3ccc(OC)cc3[N+](=O)[O-])C3C(=O)OC(=O)C23)c(OC)c1 (stereo not drawn)
2. CN(N)c1nc(N)c(C#N)c(C#N)c1C#N
3. COc1cc2nccc(Oc3ccc(NC(=O)c4cn(C(C)C)c(=O)n(-c5ccc(F)cc5)c4=O)cc3F)c2cc1OC
4. c1ccc2c(c1)cc1ccc3cccc4ccc2c1c34
5. CN(C)CCNCCCNc1c2ccccc2nc2cccc([N+](=O)[O-])c12

["> 100 µM", "> 10 µM", "> 100 µM", "> 100 µM", "0.0507 µM"]

Recorded TGI for `NCCCCNCCCN1CCOC1=O` , please?
> 100 µM

---

I'd appreciate it if you could supply TGI values for the items below.
system: HCC-2998 colon; test: NCI tumour cell line growth inhibition, 48 h

CC(=N/NC(=S)N(C)C)/C(=N\NC(=S)N(C)C)c1ccccc1    2.99 µM

# return TGI for each item in the list
1. Nc1cccc2c1C(=O)c1cccc(NC(=O)c3ccccc3)c1C2=O
2. CCOC(=O)c1c(SCc2cc(=O)[nH]c(=O)[nH]2)n(-c2ccccc2)c(=S)n(-c2ccccc2)c1=O
3. CCN(Cc1c(F)cccc1Cl)c1ccc(CO)c(Cl)c1

1. > 100 µM
2. > 100 µM
3. 18.3 µM

Look up TGI for the entries below, preserving their order.
1. CC(=O)[O-].N.N.N.N.[Co+3].[O-][Cl+3]([O-])([O-])[O-].[OH3+]
2. N#Cc1cccc(C2C3=C(COC3=O)N(CCO)c3cc4c(cc32)OCO4)c1 (stereo unspecified)
3. O=C1c2cc3c(cc2CC12Cc1ccc4c(c1C2=O)CCC4)CCC3 (stereo unspecified)
4. CN(C)CCCNc1nc2ccccc2c2[nH]c3ccccc3c12
5. Cc1cc(-c2ccccc2)nc2oc(=O)n(C)c12

1: > 100 µM; 2: > 50 µM; 3: > 100 µM; 4: 0.942 µM; 5: > 100 µM

Give me TGI for each of these compounds, listed below.
1. CCn1ncc2c(=O)n3ncn(-c4ccc(Br)cc4)c3nc21
2. O=C(Nc1nn(C(=O)c2cccnc2)c(=O)s1)c1ccc(Cl)cc1
3. Cc1ncc(CI)c(CI)c1O

["> 100 µM", "> 100 µM", "33.3 µM"]

Quick batch: TGI for everything below.
1. O=c1c2cc3ccccc3n2c(=O)c2cc3ccccc3n12
2. Nc1c2ccccc2nc2c(C(=O)Nc3ccc(S(N)(=O)=O)cc3)cccc12
3. C[N+](C)=c1ccc2nc3c(cc(NCCCNc4cc5oc6cc(=[N+](C)C)ccc-6nc5c5ccccc45)c4ccccc43)oc-2c1
4. COC1(CC[C@H](C)COC2OC(CO)C(O)C(O)C2O)O[C@H]2C[C@H]3[C@@H]4CC=C5C[C@@H](OC6OC(CO)C(OC7OC(C)C(O)C(O)C7O)C(O)C6OC6OC(C)C(O)C(O)C6O)CC[C@]5(C)[C@H]4CC[C@]3(C)[C@H]2[C@@H]1C (stereo partly specified)
5. Cc1ccc(C)c(COCCOCn2cc(N3CCOCC3)c(=O)[nH]c2=O)c1

["> 100 µM", "> 100 µM", "3.47 µM", "> 27.9 µM", "> 100 µM"]

Count: 4. Required value per item: TGI.
1. CSc1ccc(/C=C2\N=C(c3ccccc3)N(c3nc4cc(Cl)c(F)cc4s3)C2=O)cc1
2. Cc1c(C(=O)NNc2ccccc2)n2c(=S)[nH]nc2c2ccccc12
3. CC[PH+](CC)CC.[Cl][Au]
4. CSc1nc(=O)c2nc(-c3cccs3)c(-c3cccs3)nc2n1C

1. > 100 µM
2. > 100 µM
3. 12 µM
4. > 100 µM

---

test system: SK-MEL-28 melanoma; experiment: NCI tumour cell line growth inhibition, 48 h
reportedMetric: TGI

// below: answered molecules
CCCn1cc2c3c(cccc31)C1C=C(C)CN(C)C1C2 (stereo unspecified)    49.9 µM
O=C1CC[C@@]23CC(=O)O[C@@H]2CCCC3C1 (stereo partly specified)    > 100 µM
Cn1c(=O)cc(NNc2ccc(Cl)c(Cl)c2)[nH]c1=O    25.1 µM
CC[C@H](NC(=O)OC(C)(C)C)C(=O)NCP(=O)(OCc1ccc([N+](=O)[O-])cc1)OCc1ccc([N+](=O)[O-])cc1    92.9 µM
COc1ccc(OC(C)C(=O)O)c2c(=O)ccccc12 (stereo unspecified)    > 100 µM

Hey, quick one: what's TGI for each of these?
1. COc1cc2nccc(Oc3ccc(NC(=O)c4cn(C(C)C)c(=O)n(-c5ccc(F)cc5)c4=O)cc3F)c2cc1OC
2. O=C1c2cc3c(cc2CC12Cc1ccc4c(c1C2=O)CCC4)CCC3 (stereo unspecified)
3. CC1=C(C(=O)OCCO[N+](=O)[O-])C(c2ccccc2[N+](=O)[O-])C(C(=O)OC(C)C)=C(C)N1 (stereo unspecified)
4. CCOC(=O)c1c(-c2ccccc2)c(OC)cn1C
5. COc1ccc2c(c1OC)C(=O)N1C2=Cc2c(cc3c(c2OC)OCO3)CC1N(C)C (stereo unspecified)
6. CCOC(=O)N1CCN(c2c(N)nc(C)[nH]c2=O)CC1
7. CN(C)/N=N/c1nc2c(c(=O)n(C)c(=O)n2C)n1CC1CO1 (stereo unspecified)

1. 18.1 µM
2. > 100 µM
3. 30.4 µM
4. > 10 µM
5. > 100 µM
6. > 100 µM
7. 59.7 µM

---

Kindly supply the reported TGI values for the records listed here.
tested on: PC-3 prostate; assay: NCI tumour cell line growth inhibition, 48 h

Known results for compounds:
COc1c(N2CCN(CN3C(=O)C(=Nc4ccc(S(=O)(=O)Nc5ncccn5)cc4)c4cc(Cl)ccc43)C(C)C2)c(F)cc2c(=O)c(C(=O)O)cn(C3CC3)c12 (stereo not drawn)    > 50 µM
COc1cc2c3c(n(CCCNCCCN)c(=O)c2cc1OC)-c1cc2c(cc1C3=O)OCO2    14.6 µM
CC[C@H](C)[C@H](NC(=O)c1cccn1C)C(=O)N(C)[C@H](C[C@@H](OC(C)=O)c1nc(C(=O)N[C@@H](Cc2ccccc2)C[C@H](C)C(=O)OC)cs1)C(C)C    > 33.3 µM
CCOC(=O)/C=C/CCC(C)(C)COC(C)=O    > 10 µM
N#Cc1cccc(C2C3=C(COC3=O)N(CCO)c3cc4c(cc32)OCO4)c1 (stereo not drawn)    > 50 µM

Would you mind giving TGI for every compound in the list below?
1. O=C1c2cc3c(cc2-c2c1c1ccc(Cl)cc1c(=O)n2CCCn1ccnc1)OCO3
2. CCOC(=O)CN1C(=O)c2cc([N+](=O)[O-])cc3cc([N+](=O)[O-])cc(c23)C1=O
3. CO[P@@]1(=O)O[C@@H](c2ccccc2)[C@H](O)[C@]1(O)c1ccccc1

["> 100 µM", "> 100 µM", "> 100 µM"]
